# MEASURED ON: Nuclear receptor coactivator 1 (Homo sapiens)
# ASSAY: SRC1 coactivator transcriptional activity inhibitors, confirmation, cell-based, luminescence, quadruplicate (AID 588820)
# CONDITIONS USED: HEK293 GAL4-SRC1 luciferase reporter, at 3.6 µM
The source made the active and inactive calls.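 How the source made its calls: active means mean inhibition above 46.68%, the untreated control wells mean plus 3 SD; inactive means the rest.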
Parameter call: string, one of TRUE (active), FALSE (inactive)

Task: # outcome recorded in this test, key = `CN(C)CCCN1C(=O)c2cccc3c([N+](=O)[O-])ccc(c23)C1=O`
Output: FALSE

Task: # outcome recorded in this test, key = `CC(=NNC(=S)N1CCCCC1)c1ccccn1`
Output: FALSE

Task: # outcome recorded in this test, key = `CCOC(=O)c1cc(C#N)c(N2CCN(C(=O)c3cccc(C(F)(F)F)c3)CC2)nc1C(F)(F)F`
Output: FALSE

Task: # outcome recorded in this test, key = `Cn1ncc(Cl)c1C(=O)NCc1cc(C(C)(C)C)n[nH]1`
Output: FALSE

Task: # outcome recorded in this test, key = `CN(C)CCNc1ccc(CO)c2oc3ccc(O)cc3c(=O)c12`
Output: FALSE

Task: # outcome recorded in this test, key = `COC(=O)c1cc2ccccn2c2c(C(=O)OC)c(C(=O)OC)cc1-2`
Output: FALSE

Task: # outcome recorded in this test, key = `C(=N\Nc1nc2ccccc2[nH]1)/c1ccc2ncccc2c1`
Output: FALSE

Task: # outcome recorded in this test, key = `CC(C)N1C(=O)/C(=C\c2nc3ccccc3c(=O)n2-c2ccccc2)c2ccccc21`
Output: FALSE

Task: # outcome recorded in this test, key = O=C(NCCC(=O)N1CCCC(C(F)(F)F)C1)c1ccc(Br)cc1 (centres undefined)
Output: FALSE

Task: # outcome recorded in this test, key = `O=C(Nc1ccc(OCC(F)(F)C(F)F)c(C(F)(F)F)c1)c1ccccc1O`
Output: FALSE

Task: # outcome recorded in this test, key = `O=C(NCCc1ccccc1)c1ccc2c(c1)OCCO2`
Output: FALSE

Task: # outcome recorded in this test, key = O=C1C2C3C=CC(C3)C2C(=O)N1CN(Cc1ccccc1)CN1C(=O)C2C3C=CC(C3)C2C1=O (centres undefined)
Output: FALSE

Task: # outcome recorded in this test, key = C=C1CCC[C@]2(C)C[C@H]3OC(=O)C(CN4CC(C)OC(C)C4)[C@H]3C[C@@H]12 (some centres undefined)
Output: FALSE

Task: # outcome recorded in this test, key = `O=C(NCc1ccccc1)c1csc(-c2cccnc2)n1`
Output: FALSE

Task: # outcome recorded in this test, key = `CCOC(=O)c1c(NC(=O)COc2ccccc2C#N)sc2c1CC(C)(C)NC2(C)C`
Output: FALSE

Task: # outcome recorded in this test, key = `O=C(NC1CCCCC1)c1n[nH]c2c1CCCCC2`
Output: FALSE

Task: # outcome recorded in this test, key = CC1CN(c2nc3ccccc3nc2SCC(=O)Nc2cccc(C(F)(F)F)c2)CC(C)O1 (centres undefined)
Output: FALSE

Task: # outcome recorded in this test, key = `C=C(C)c1cccc(C(C)(C)NC(=O)N(Cc2ccccc2)Cc2ccco2)c1`
Output: FALSE

Task: # outcome recorded in this test, key = `CC(C)(C)c1ccc(OCCC(=O)NNC(=O)c2ccncc2)cc1`
Output: FALSE

Task: # outcome recorded in this test, key = `Cc1ccc(S(=O)(=O)c2ccc([N+](=O)[O-])cn2)cc1`
Output: FALSE

Task: # outcome recorded in this test, key = `O=C(CN1C(=O)CCC1=O)Nc1ccc(S(=O)(=O)N2CCOCC2)cc1`
Output: FALSE

Task: # outcome recorded in this test, key = `CCN(CC)c1ccc(/C=N/NC(=O)CCC(=O)NCc2ccccc2)c(O)c1`
Output: FALSE

Task: # outcome recorded in this test, key = Cc1c(C(C)NC(=O)c2cc(COc3cccc4cnccc34)on2)cnn1C (centres undefined)
Output: FALSE

Task: # outcome recorded in this test, key = C=Cc1ccc(CC2(C)C(=O)Nc3ccc(-c4cccnc4)cc32)cc1 (centres undefined)
Output: TRUE

Task: # outcome recorded in this test, key = CN(Cc1cnc2nc(N)nc(N)c2n1)c1ccc(C(=O)NC(CCC(=O)O)C(=O)O)c2ccccc12 (centres undefined)
Output: TRUE

Task: # outcome recorded in this test, key = CC(=O)N1CCc2c(sc(NC(=O)C3CCCN3S(=O)(=O)c3cccs3)c2C(N)=O)C1 (centres undefined)
Output: FALSE

Task: # outcome recorded in this test, key = `COc1cc2c(cc1NC(=O)/C=C/c1cc(OC)c(OC)c(OC)c1)oc1ccccc12`
Output: FALSE

Task: # outcome recorded in this test, key = `COc1ccc2[nH]c(=O)c(CN(CCN3CCCC3)C(=O)Nc3ccccc3Cl)cc2c1`
Output: FALSE

Task: # outcome recorded in this test, key = `Cc1sc2ncnc(NC3CCN(Cc4ccccc4)CC3)c2c1C`
Output: FALSE

Task: # outcome recorded in this test, key = `O=C(Nc1cc(Cl)ccc1N1CCOCC1)c1ccco1`
Output: FALSE

Task: # outcome recorded in this test, key = `c1csc(CNc2ccc3c(c2)OCCO3)c1`
Output: FALSE

Task: # outcome recorded in this test, key = O=C(CCl)NC(Cc1ccccc1)c1ccccc1 (centres undefined)
Output: FALSE

Task: # outcome recorded in this test, key = `CC(C)(C)C(=O)NC(=S)NNC(=O)c1sc2ccccc2c1Cl`
Output: FALSE

Task: # outcome recorded in this test, key = `CC(=O)Nc1ccc(SCC(=O)c2cc(C)n(-c3ccccc3)c2C)cc1`
Output: FALSE

Task: # outcome recorded in this test, key = `COc1ccc2c(c1)-c1c(ssc1=S)C(C)(C)N2`
Output: TRUE

Task: # outcome recorded in this test, key = CCCCC(=O)NC(c1ccccc1Cl)c1ccc2cccnc2c1O (centres undefined)
Output: FALSE

Task: # outcome recorded in this test, key = `Oc1ccc(Nc2nc(N3CCCC3)c3ccccc3n2)cc1`
Output: FALSE

Task: # outcome recorded in this test, key = `Nc1ccc2c(c1)C(=O)C(=O)c1ccccc1-2`
Output: TRUE

Task: # outcome recorded in this test, key = `O=C(c1ccccc1)c1nn(-c2ccc(Cl)cc2)c(=O)cc1C(F)(F)F`
Output: FALSE

Task: # outcome recorded in this test, key = `O=C1C=CC(=C(c2ccc(O)cc2)c2ccc(O)cc2)C=C1`
Output: TRUE

Task: # outcome recorded in this test, key = `O=C1c2cccc(OCc3ccc(F)cc3)c2CCN1Cc1ccc(F)cc1`
Output: FALSE

Task: # outcome recorded in this test, key = `CCOc1ccc(Nc2ncnc3ccc([N+](=O)[O-])cc23)cc1`
Output: TRUE

Task: # outcome recorded in this test, key = `COC(=O)c1ccc2c(c1)NC(=O)c1ccccc1S2`
Output: FALSE

Task: # outcome recorded in this test, key = `CCN(CC)CCNc1nc2cc(OC)c(OC)cc2c2nc(-c3ccccc3)nn12`
Output: FALSE

From: PubChem BioAssay
